- TARGET_SYSTEM: furin, P09958;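 note: purified furin at 1:10 enzyme:substrate in 50 mM HEPES pH 7.5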
- Sequence (P09958 whole entry): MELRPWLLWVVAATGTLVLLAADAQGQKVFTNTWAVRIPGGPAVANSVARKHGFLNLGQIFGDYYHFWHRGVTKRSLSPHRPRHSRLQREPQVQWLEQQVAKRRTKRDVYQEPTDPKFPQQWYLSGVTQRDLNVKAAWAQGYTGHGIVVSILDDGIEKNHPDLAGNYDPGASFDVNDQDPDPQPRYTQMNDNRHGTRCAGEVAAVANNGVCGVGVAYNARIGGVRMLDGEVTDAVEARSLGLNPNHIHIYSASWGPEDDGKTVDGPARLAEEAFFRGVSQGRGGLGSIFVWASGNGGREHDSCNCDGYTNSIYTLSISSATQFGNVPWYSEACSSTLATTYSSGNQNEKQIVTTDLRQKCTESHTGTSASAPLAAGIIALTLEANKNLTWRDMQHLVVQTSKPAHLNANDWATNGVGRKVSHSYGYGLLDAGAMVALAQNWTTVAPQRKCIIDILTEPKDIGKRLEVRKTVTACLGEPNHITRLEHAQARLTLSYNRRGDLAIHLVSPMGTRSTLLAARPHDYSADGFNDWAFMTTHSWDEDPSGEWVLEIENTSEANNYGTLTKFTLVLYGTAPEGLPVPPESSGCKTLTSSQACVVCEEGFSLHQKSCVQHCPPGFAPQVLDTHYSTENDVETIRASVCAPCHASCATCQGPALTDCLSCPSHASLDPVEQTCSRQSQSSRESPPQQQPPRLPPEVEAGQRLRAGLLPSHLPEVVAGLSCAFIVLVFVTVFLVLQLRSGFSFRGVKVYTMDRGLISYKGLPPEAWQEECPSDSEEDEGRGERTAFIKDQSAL
- PROTOCOL_TEXT: furin cleavage Z-score vs untreated control; higher = more cleavage, active = 3.5 or more, inactive = 1 or less, 8 variable residues between constant flanks
- CONDITION: 7.5 min
The list shows a part of the results. The true hit rate is not given.
Note that class boundaries on furin cleavage Z-score are group A: < 0.3; group B: ≥ 0.3 and < 3; group C: ≥ 3

SEQ	GROUP
CADVCCSMSYAGNASASA [HC1991]	group A
CADMMEECSQAGNASASA [HC1806]	group A

-- ask Pick a category. Item: CAEVRCHRPSAGNASASA [HC2353]
-- reply group B

-- ask Would you mind doing CARHQRTENIAGNASASA [FS-2942] as well?
-- reply group A

-- ask Would you mind doing CAAKGRAGRSAGNASASA [FS-971] as well?
-- reply group C

-- ask Would you mind doing CAARPDYNPPAGNASASA [HC1305] as well?
-- reply group A

-- ask Would you mind doing CASTPCSHHLAGNASASA [HC2535] as well?
-- reply group A

-- ask Would you mind doing CASTGYPKRSAGNASASA [FS-1616] as well?
-- reply group B

-- ask Would you mind doing CASHSREGRSAGNASASA [FS-1281] as well?
-- reply group B

-- ask Would you mind doing CARHYRNVFHAGNASASA [FS-2557] as well?
-- reply group B

-- ask Would you mind doing CARHYRWALGAGNASASA [FS-1719] as well?
-- reply group A

-- ask Would you mind doing CARRWREVEEAGNASASA [FS-2803] as well?
-- reply group A

-- ask Would you mind doing CAVIAPAVQTAGNASASA [HC1033] as well?
-- reply group B

-- ask Would you mind doing CAHVQRQRREAGNASASA [FS-441] as well?
-- reply group C

-- ask Would you mind doing CAYSPGQRVEAGNASASA [HC1468] as well?
-- reply group A

-- ask Would you mind doing CARRKREVQMAGNASASA [FS-2779] as well?
-- reply group C
